Target: GAK (human)
Experiment: KINOMEscan competition binding
Conditions: compound 10.0 µM
measurementKind: kinase still bound, per cent of control

Example cases with answers are listed next.
>>> print(df.to_string())
                          structurenotation         endpointvalue
0    CN(C)c1ccc(-c2cc3ncccc3c(NCCCCN)n2)cc1                    0%
1  CCS(=O)(=O)Nc1ccc2c(c1)[C@H](/C(=N/c1ccc(CN3CCCCC3)cc1)c1ccccc1)C(=O)N2                  2.7%
2  Cc1ccc(C(=O)Nc2cccc(C(C)(C)C)c2)cc1-c1ccc(C(=O)NCC2CC2)cc1  no effect (inactive)
3      c1ccc(-c2n[nH]cc2-c2ccnc3ccccc23)nc1                    0%

Query compound follows.
Return reported kinase still bound, per cent of control. Input compound: `Cc1ccc(NC(=O)c2cccc(N3CCCCC3)c2)cc1-c1ccc(C(=O)NCC2CC2)cc1` no effect (inactive)
